# credit: patent US9708498B2

- test_summary: Absorption spectrum of n-decane solution: solution color, absorption maximum wavelength λmax, molar extinction coefficient ε
- Assay type: physicochemical
- applied_conditions: 10 mm quartz cell
Label rule, in plain words: Absorption maximum wavelength λmax of 600 nm and up is Criterion met, under 600 nm is Criterion not met.

INSERT INTO measurements (molecule, label_value) VALUES
  ('CCCCc1ccc(N=Nc2sc(N=Nc3cc(OCC)c(N(CC(CC)CCCC)CC(CC)CCCC)cc3OCC)c(C#N)c2C)cc1 (centres unmarked) [Compound 4]', 'Criterion met'),
  ('CCCCCCSc1nnc(N=Nc2cc(OC)c(N(Cc3ccc(C(C)(C)C)cc3)Cc3ccc(C(C)(C)C)cc3)cc2NC(C)=O)s1 [compound 1, reference compound]', 'Criterion not met');
